# System under test: tubulin/RB3-stathmin-like-domain (RB3-SLD-tdm) complex (Sus scrofa, UniProt P02550+P02554)
# Construct: purchased Cytoskeleton, Inc. T240; host or cells: RB3-SLD was made in house in E. coli
# Test description: Tubulin Peptide-Binding Site Competition Assay (fluorescence polarization)
# Set-up: species or system Porcine
# Applied conditions: FP competition with BODIPY-labeled vinca peptide probe; read after five hours at 22° C.; read-out: Tubulin Peptide-Binding Site Competition Assay IC50
Measurement type: IC50 (nM)
One number for each entry, in nM.

Some solved entries appear below for comparison.
>  <Structure smiles>
CC[C@H](C)[C@H](NC(=O)[C@@]1(C)CCCN1C)C(=O)N(C)[C@H](C[C@@H](OC(C)=O)c1nc(C(=O)NCCc2ccc(-c3ccccc3)cc2)cs1)C(C)C

>  <IC50 (nM)>
436

$$$$
>  <Structure smiles>
CC[C@H](C)[C@H](NC(=O)C12CC(CCN1C)C2)C(=O)N(C)[C@H](C[C@@H](OC(C)=O)c1nc(C(=O)N[C@@H](Cc2ccccc2)C[C@H](C)C(=O)OC)cs1)C(C)C

>  <IC50 (nM)>
11.5

$$$$
>  <Structure smiles>
CC[C@H](C)[C@H](NC(=O)C12CCC(CC1)N2C)C(=O)N(C)[C@H](C[C@@H](OC(C)=O)c1nc(C(=O)N[C@@H](Cc2ccccc2)C[C@H](C)C(=O)OC)cs1)C(C)C

>  <IC50 (nM)>
3.7

$$$$
>  <Structure smiles>
CC[C@H](C)[C@H](NC(=O)[C@@]1(C)CCCN1C)C(=O)N(C)[C@H](C[C@@H](O)c1nc(C(=O)N[C@@H](Cc2ccccc2)C[C@H](C)C(=O)O)cs1)C(C)C

>  <IC50 (nM)>
7

$$$$
>  <Structure smiles>
CC[C@H](C)[C@H](NC(=O)[C@@]1(C)CCCN1C)C(=O)N(C)[C@H](C[C@@H](OC(C)=O)c1nc(C(=O)NCCn2nc(C)cc2C)cs1)C(C)C

>  <IC50 (nM)>
27.6

$$$$

Below is a list of compounds. For each, state its recorded IC50.
1. CC[C@H](C)[C@H](NC(=O)[C@@]1(C)CCCN1C)C(=O)N(C)[C@H](C[C@@H](OC(C)=O)c1nc(C(=O)NCCc2c[nH]c3ccccc23)cs1)C(C)C
2. CC[C@H](C)[C@H](NC(=O)[C@@]1(C)CCCN1C)C(=O)N(C)[C@H](C[C@@H](OC(C)=O)c1nc(C(=O)NCCN2Cc3ccccc3C2=O)cs1)C(C)C
3. CC[C@H](C)[C@H](NC(=O)[C@@]1(C)CCCN1C)C(=O)N(C)[C@H](C[C@@H](OC(C)=O)c1nc(C(=O)NCCNC(=O)c2ccccc2)cs1)C(C)C
4. CC[C@H](C)[C@H](NC(=O)[C@@]1(C)CCCN1C)C(=O)N(C)[C@H](C[C@@H](OC(C)=O)c1nc(C(=O)NC(c2ccccc2)c2ccccc2)cs1)C(C)C
5. CC[C@H](C)[C@H](NC(=O)[C@@]1(C)CCCN1C)C(=O)N(C)[C@H](C[C@@H](OC(C)=O)c1nc(C(=O)N[C@@H](Cc2ccc(N)cc2)c2nccs2)cs1)C(C)C
6. CC[C@H](C)[C@H](NC(=O)[C@@]1(C)CCCN1C)C(=O)N(C)[C@H](C[C@@H](OC(C)=O)c1nc(C(=O)N[C@H](CNS(C)(=O)=O)Cc2ccccc2)cs1)C(C)C

1: 64.6; 2: 47.6; 3: 108; 4: 348; 5: 6.5; 6: 5
